Origin of measurements: ChEMBL document CHEMBL3879915

Target: PRMT5/MEP50 complex (Homo sapiens, UniProt O14744)
Sequence (O14744 whole entry, the tested form may be a part): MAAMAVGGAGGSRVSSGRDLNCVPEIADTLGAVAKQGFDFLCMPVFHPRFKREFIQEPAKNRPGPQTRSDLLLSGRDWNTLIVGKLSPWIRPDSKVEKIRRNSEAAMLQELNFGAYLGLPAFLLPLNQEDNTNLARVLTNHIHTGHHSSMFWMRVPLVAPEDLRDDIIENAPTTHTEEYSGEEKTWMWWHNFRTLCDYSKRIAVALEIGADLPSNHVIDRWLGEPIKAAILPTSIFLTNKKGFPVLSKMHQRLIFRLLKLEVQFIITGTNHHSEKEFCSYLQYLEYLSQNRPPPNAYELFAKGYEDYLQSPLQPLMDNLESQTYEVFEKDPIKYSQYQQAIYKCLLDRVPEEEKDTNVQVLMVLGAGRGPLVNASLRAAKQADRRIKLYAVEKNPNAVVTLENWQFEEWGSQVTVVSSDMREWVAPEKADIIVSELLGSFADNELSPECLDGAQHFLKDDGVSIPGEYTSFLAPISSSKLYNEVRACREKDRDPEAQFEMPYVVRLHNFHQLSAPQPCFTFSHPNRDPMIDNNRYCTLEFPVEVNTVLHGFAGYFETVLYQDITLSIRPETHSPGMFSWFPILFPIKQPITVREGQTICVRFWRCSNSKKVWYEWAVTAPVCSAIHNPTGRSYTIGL
Sequence (Q9BQA1 whole entry, further chain, the tested form may be a part): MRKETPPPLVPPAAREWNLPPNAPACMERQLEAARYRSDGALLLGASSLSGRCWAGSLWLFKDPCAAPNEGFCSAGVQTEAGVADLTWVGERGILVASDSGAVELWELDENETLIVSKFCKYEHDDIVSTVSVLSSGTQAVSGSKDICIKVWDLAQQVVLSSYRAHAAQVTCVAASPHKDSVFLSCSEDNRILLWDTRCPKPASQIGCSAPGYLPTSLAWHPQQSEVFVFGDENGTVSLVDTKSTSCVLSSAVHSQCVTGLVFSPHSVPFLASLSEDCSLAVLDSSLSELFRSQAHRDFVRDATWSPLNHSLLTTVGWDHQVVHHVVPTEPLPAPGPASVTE
Test: Inhibition of recombinant human fetal brain FLAG-tagged PRMT5/full length human testis 6His-tagged MEP50 expressed in baculovirus infected insect Sf9 cells using human histone H4 (1 to 15 residues) as substrate preincubated for 30 mins followed by [3H]-SAM addition
Endpoint name: IC50

Known IC50 results, listed for orientation:
Value lookup for IC50; key = O=C(NCC(O)CN1CCc2ccccc2C1)c1cccc(C2CCNC2)c1 (stereo not given) < 0.1 µM

What does the data say about its IC50? Entry: CC(Oc1ccccc1)C(=O)NCC(O)CN1CCc2ccccc2C1 (stereo not given) < 0.1 µM

I'd like to know its IC50. The compound in question is O=C(COc1cccc2c1CCNC2)NCC(O)CN1CCc2ccccc2C1 (stereo not given) < 0.1 µM

Endpoint output: IC50 of Cn1cnc2ccc(-c3cccc(NCC(O)CN4CCc5ccccc5C4)c3)cc21 (stereo not given) . Value? < 0.1 µM

Quick one: IC50 of O=C(COc1ccccc1-c1c[nH]cn1)NCC(O)CN1CCc2ccccc2C1 (stereo not given) ? 10 to 50 µM

Further cases:
Consider the compound O=C(COc1ccccc1-c1cc[nH]n1)NCC(O)CN1CCc2ccccc2C1 (stereo not given) and give its measured IC50. < 0.1 µM

For the compound CNS(=O)(=O)c1ccccc1OCC(=O)NCC(O)CN1CCc2ccccc2C1 (stereo not given) , what IC50 is on record? < 0.1 µM

# lookup: IC50 of O=C(COc1cccc2cccnc12)NCC(O)CN1Cc2ccccc2C(F)(F)C1 (stereo not given) > 10 µM

For the compound COc1ncc(-c2cccc(OCC(O)CN3CCc4ccccc4C3)c2)cn1 (stereo not given) , what IC50 is on record? 1 to 10 µM

====

Biological target: PRMT5/MEP50 complex (Homo sapiens)
Experiment: Inhibition of recombinant human fetal brain FLAG-tagged PRMT5/full length human testis 6His-tagged MEP50 expressed in baculovirus infected insect Sf9 cells using human histone H4 (1 to 15 residues) as substrate preincubated for 30 mins followed by [3H]-SAM addition
pIC50: −log10 of the molar value.
Endpoint name: pIC50

Enter reported pIC50 observed with PRMT5/MEP50 complex (Homo sapiens) for Cn1ncc2ccc(OCC(=O)NCC(O)CN3CCc4ccccc4C3)cc21 (stereo not drawn) > 7.00

Report pIC50 for CN(C(=O)c1cn(C)cn1)c1cccc(OCC(O)CN2CCc3ccccc3C2)c1 (stereo not drawn) tested on PRMT5/MEP50 complex (Homo sapiens). 5.00 to 6.00

Kindly state the measured pIC50 obtained for Cn1cnc2ccc(-c3cccc(OC[C@@H](O)CN4Cc5ccccc5C4)c3)cc21 with PRMT5/MEP50 complex (Homo sapiens). 4.30 to 5.00

Provide the documented pIC50 with PRMT5/MEP50 complex (Homo sapiens) as the system for O=C(NCC(O)CN1CCc2ccccc2C1)c1cccnc1 (stereo not drawn) 6.00 to 7.00

Give PRMT5/MEP50 complex (Homo sapiens) pIC50 for O=C(COc1cccc(NC2CCOCC2)c1)NCC(O)CN1CCc2ccccc2C1 (stereo not drawn) > 7.00

Notebook: pull reported pIC50 for PRMT5/MEP50 complex (Homo sapiens), entry CC1Cc2ccccc2CN1CC(O)COc1cccc(-c2ccc3ncn(C)c3c2)c1 (stereo not drawn) 5.00 to 6.00

Notebook entry, PRMT5/MEP50 complex (Homo sapiens) assay: pIC50 of CN(CC(O)CN1CCc2ccccc2C1)c1cccc(CNC2CCCC2)c1 (stereo not drawn) = ? 6.00 to 7.00

Which pIC50 is reported with PRMT5/MEP50 complex (Homo sapiens) for this entry: CN1CCC(c2ccccc2OCC(=O)NCC(O)CN2CCc3ccccc3C2)CC1 (stereo not drawn) ? 6.00 to 7.00

Others:
# get_value(readout= pIC50, system= PRMT5/MEP50 complex (Homo sapiens)) for OC(COc1cccc(-c2cc(OC(F)(F)F)ccc2Cl)c1)CN1CCc2ccccc2C1 (stereo not drawn) 6.00 to 7.00

Missing value: pIC50, PRMT5/MEP50 complex (Homo sapiens), entry COC(=O)c1cccc(-c2cccc(OCC(O)CN3CCc4ccccc4C3)c2)c1 (stereo not drawn) . Fill in? 6.00 to 7.00

For the record O=C(NCC(O)CN1CCc2ccccc2C1)c1cccc(-c2cccnc2)c1 (stereo not drawn) , what value of pIC50 is listed for PRMT5/MEP50 complex (Homo sapiens)? > 7.00

Under PRMT5/MEP50 complex (Homo sapiens): pIC50 value of CC(=O)N1CCC(n2ccc3cnc(-c4ccnc(NCC(O)CN5CCc6ccccc6C5)c4)nc32)CC1 (stereo not drawn) ? > 7.00

Recorded pIC50 for Cn1cncc1C(=O)Nc1cccc(OC[C@@H](O)CN2CCc3ccccc3C2)c1 with PRMT5/MEP50 complex (Homo sapiens), please? 5.00 to 6.00
